Target: recombinant human HPK1 (Homo sapiens (Human))
Sequence (Q92918 whole entry): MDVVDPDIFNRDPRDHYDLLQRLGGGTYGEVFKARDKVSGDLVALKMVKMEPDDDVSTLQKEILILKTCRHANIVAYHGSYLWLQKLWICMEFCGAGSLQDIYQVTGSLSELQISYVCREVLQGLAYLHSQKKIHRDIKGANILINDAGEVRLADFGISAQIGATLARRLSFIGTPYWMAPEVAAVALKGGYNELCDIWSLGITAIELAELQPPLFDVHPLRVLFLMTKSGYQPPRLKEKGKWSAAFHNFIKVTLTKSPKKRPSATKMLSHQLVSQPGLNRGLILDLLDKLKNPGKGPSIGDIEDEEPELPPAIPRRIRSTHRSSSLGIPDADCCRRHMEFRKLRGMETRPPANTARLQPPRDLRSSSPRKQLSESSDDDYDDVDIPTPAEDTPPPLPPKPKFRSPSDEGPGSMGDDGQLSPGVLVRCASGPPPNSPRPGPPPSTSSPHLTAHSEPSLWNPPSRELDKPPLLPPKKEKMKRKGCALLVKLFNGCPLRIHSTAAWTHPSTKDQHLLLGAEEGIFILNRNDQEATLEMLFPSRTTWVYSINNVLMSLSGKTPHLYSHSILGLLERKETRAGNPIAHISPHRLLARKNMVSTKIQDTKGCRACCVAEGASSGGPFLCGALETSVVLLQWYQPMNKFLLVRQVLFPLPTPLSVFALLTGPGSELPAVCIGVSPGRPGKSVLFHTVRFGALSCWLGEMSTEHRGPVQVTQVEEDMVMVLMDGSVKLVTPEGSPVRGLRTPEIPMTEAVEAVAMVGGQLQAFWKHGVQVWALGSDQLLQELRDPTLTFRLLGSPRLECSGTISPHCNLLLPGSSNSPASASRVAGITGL
Experiment: HPK1 kinase assay (ADP-Glo)
Settings: 25 μM ATP, MBP substrate
pIC50: −log10 of the molar value.

Compound	Test System	pIC50
C[C@@H]1[C@H](C(=O)Nc2cc3cc(-c4c(Cl)c(F)c(N(C)C)c5[nH]ncc45)ccn3n2)[C@H]1c1cnn(C)c1	recombinant human HPK1 (Homo sapiens (Human))	> 7.00
O=C(Nc1cn2cc(-c3c(Cl)c(F)c(C(F)F)c4[nH]ncc34)ccc2n1)[C@@H]1C[C@@H]1F	recombinant human HPK1 (Homo sapiens (Human))	> 7.00
CSc1n[nH]c2cc(F)c(C)c(-c3ccc4nc(NC(=O)[C@@H]5C[C@@H]5F)sc4n3)c12	recombinant human HPK1 (Homo sapiens (Human))	< 6.00
COCCSc1c(F)c(Cl)c(-c2ccc3nc(NC(=O)[C@@H]4C[C@@H]4F)sc3c2)c2cn[nH]c12	recombinant human HPK1 (Homo sapiens (Human))	> 7.00
Cc1c(F)c(C(=O)O)c2[nH]ncc2c1-c1ccn2nc(NC(=O)[C@@H]3C[C@@H]3F)cc2c1	recombinant human HPK1 (Homo sapiens (Human))	< 6.00
O=C(Nc1cc2cc(-c3c(Cl)c(F)c(NC4CCC(O)C4)c4[nH]ncc34)ccn2n1)[C@@H]1C[C@@H]1F (some centres unmarked)	recombinant human HPK1 (Homo sapiens (Human))	> 7.00
C=CC(=O)Nc1cc2[nH]ncc2c(-c2ccc3nc(NC(=O)[C@@H]4C[C@@H]4F)cn3c2)c1C	recombinant human HPK1 (Homo sapiens (Human))	< 6.00
Cc1c(F)c(OC(F)(F)F)c2[nH]ncc2c1-c1ccn2nc(NC(=O)[C@@H]3C[C@@H]3F)cc2c1	recombinant human HPK1 (Homo sapiens (Human))	> 7.00
